Reference for the values: ChEMBL document CHEMBL5370641

# systemName: Matrix metalloproteinase-14 (Homo sapiens, UniProt P50281)
# procedureSummary: Inhibition of recombinant human MMP14 using MOCAc-Lys-Pro-Leu-Gly-Leu-A2pr(Dnp)-Ala-Arg-NH2 as substrate preincubated with compound for 15 mins followed by substrate addition and measured after 1 hrs by fluorescence based analysis
pIC50: −log10 of the molar value. Numbered stars: 1 amine (or outer) side, 2 acyl side, 3 side chain; on linkers, the order of the positions; unused ones are H or OH. Square brackets hold non-standard residues; d marks the D form. Peptide text beside a SMILES is read from it. * marks the point of attachment. Benzenesulfonyl(4-Cl,3-CF3) = O=S(=O)(c1ccc(Cl)c(C(F)(F)F)c1)*; Phe(4-I) = N[C@@H](Cc1ccc(I)cc1)C(=O)O; γGlu = O=C(O)[C@H](CCC(=O)[*:2])N[*:1]; hPhe = N[C@@H](CCc1ccccc1)C(=O)O; 3Pal = N[C@@H](Cc1cccnc1)C(=O)O; Tle = CC(C)(C)[C@H](N)C(=O)O; β3hP = O=C(O)C[C@@H]1CCCN1
readoutLabel: pIC50

Past entries and their recorded results:
molecule: CC(C)(C)[C@H](NC(=O)[C@H](Cc1ccccc1)NC(=O)CNC(=O)CC[C@H](NS(=O)(=O)c1ccc(Cl)c(C(F)(F)F)c1)C(=O)O)C(=O)N1CCC[C@H]1CC(N)=O ({Benzenesulfonyl(4-Cl,3-CF3)-γGlu}-GF[Tle][β3hP]-NH2)
pIC50: 5.49

molecule: CC(C)(C)[C@H](NC(=O)[C@H](Cc1ccc(O)cc1)NC(=O)CNC(=O)CC[C@H](NS(=O)(=O)c1ccc(Cl)c(C(F)(F)F)c1)C(=O)O)C(=O)N1CCC[C@H]1CC(N)=O ({Benzenesulfonyl(4-Cl,3-CF3)-γGlu}-GY[Tle][β3hP]-NH2)
pIC50: 5.57

molecule: CC(C)(C)[C@H](NC(=O)[C@H](Cc1cccnc1)NC(=O)CNC(=O)CC[C@H](NS(=O)(=O)c1ccc(Cl)c(C(F)(F)F)c1)C(=O)O)C(=O)N1CCC[C@H]1CC(N)=O ({Benzenesulfonyl(4-Cl,3-CF3)-γGlu}-G[3Pal][Tle][β3hP]-NH2)
pIC50: 5.57

a = CC(C)(C)[C@H](NC(=O)[C@H](Cc1ccc(I)cc1)NC(=O)CNC(=O)CC[C@H](NS(=O)(=O)c1ccc(Cl)c(C(F)(F)F)c1)C(=O)O)C(=O)N1CCC[C@H]1CC(N)=O ({Benzenesulfonyl(4-Cl,3-CF3)-γGlu}-G[Phe(4-I)][Tle][β3hP]-NH2)
b = COc1ccc(C[C@H](NC(=O)CNC(=O)CC[C@H](NS(=O)(=O)c2ccc(Cl)c(C(F)(F)F)c2)C(=O)O)C(=O)N[C@H](C(=O)N2CCC[C@H]2CC(N)=O)C(C)(C)C)cc1 ({Benzenesulfonyl(4-Cl,3-CF3)-γGlu}-GY(Me)[Tle][β3hP]-NH2)
c = CC(C)(C)[C@H](NC(=O)[C@H](CCc1ccccc1)NC(=O)CNC(=O)CC[C@H](NS(=O)(=O)c1ccc(Cl)c(C(F)(F)F)c1)C(=O)O)C(=O)N1CCC[C@H]1CC(N)=O ({Benzenesulfonyl(4-Cl,3-CF3)-γGlu}-G[hPhe][Tle][β3hP]-NH2)
d = CC(C)c1cn(C[C@H](NC(=O)CNC(=O)CC[C@H](NS(=O)(=O)c2ccc(Cl)c(C(F)(F)F)c2)C(=O)O)C(=O)N[C@H](C(=O)N2CCC[C@H]2CC(N)=O)C(C)(C)C)nn1
e = CC(C)(C)[C@H](NC(=O)[C@H](Cc1cccnn1)NC(=O)CNC(=O)CC[C@H](NS(=O)(=O)c1ccc(Cl)c(C(F)(F)F)c1)C(=O)O)C(=O)N1CCC[C@H]1CC(N)=O
Query block: Task field, ranking: reported pIC50, descending order. // list labels; follow requested order
Result block: a, b, c, e, d
(a: 6.16, b: 5.70, c: 5.35, e: 5.08, d: 4.80)
